- systemName: CYP2C9 (Homo sapiens)
- Sequence (P11712 whole entry): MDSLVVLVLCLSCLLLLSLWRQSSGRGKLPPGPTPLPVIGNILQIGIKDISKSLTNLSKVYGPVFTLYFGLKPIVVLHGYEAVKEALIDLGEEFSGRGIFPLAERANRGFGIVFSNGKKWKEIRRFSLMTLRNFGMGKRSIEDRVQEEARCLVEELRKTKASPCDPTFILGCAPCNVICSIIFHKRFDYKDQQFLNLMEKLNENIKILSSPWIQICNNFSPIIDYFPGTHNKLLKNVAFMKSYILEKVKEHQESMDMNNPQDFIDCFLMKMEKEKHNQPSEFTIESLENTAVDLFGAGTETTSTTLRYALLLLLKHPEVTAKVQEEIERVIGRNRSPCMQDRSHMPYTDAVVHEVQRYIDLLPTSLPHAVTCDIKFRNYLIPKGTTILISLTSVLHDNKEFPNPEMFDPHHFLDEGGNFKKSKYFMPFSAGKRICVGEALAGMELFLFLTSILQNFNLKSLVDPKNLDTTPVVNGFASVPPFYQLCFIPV
- protocolSummary: Inhibition of CYP2C9 in human liver microsomes at 10 uM after 20 mins
- Type: ADME
experimentalEndpoint: inhibition at 20 min, 10 µM (%)

O=C(O)CCNc1cc(N2CCc3ccccc3CC2)nc(-c2ccccn2)n1: 5

[A] O=C(O)CCNc1nc(N2CCc3ccccc3CC2)cc(-n2cccn2)n1
[B] O=C(O)CCNc1nc(N2CCc3ccccc3CC2)cc(-n2cc3ccccc3n2)n1
[C] O=C(O)CCNc1nc(N2CCc3ccccc3CC2)cc(-n2ccnn2)n1
[D] O=C(O)CCNc1nc(-c2nccs2)cc(N2CCc3ccccc3CC2)n1
Prompt: Returns the items ordered by inhibition at 20 min, 10 µM, from maximum to minimum. Lab note: record answer as labels in requested order.
Response: B, D, A, C
(B: 17%, D: 9%, A: 5%, C: 1%)
